assay: Stability in CD-1 mouse liver microsomes assessed as remaining compound in absence of NADPH incubated for 60 mins by LC-MS/MS analysis; format: ADME, Microsome; details: read-out: Stability
property label: remaining at 1 h (%)

compound="C[C@@H]1CN(C)CCC1c1cc(-c2ccncc2)c(-c2ccc(F)cc2)[nH]1.Cl.Cl (single isomer, unassigned)" measured_value=103
compound=C[C@H]1CN(C)CC[C@@H]1c1cc(-c2ccncc2)c(-c2ccc(F)cc2)[nH]1.Cl.Cl measured_value=99
compound="CC1CN(C)CC[C@H]1c1cc(-c2ccncc2)c(-c2ccc(F)cc2)[nH]1.Cl.Cl (single isomer, unassigned)" measured_value=104
compound=C[C@@H]1CN(C)CC[C@@H]1c1cc(-c2ccncc2)c(-c2ccc(F)cc2)[nH]1.Cl.Cl measured_value=103

---

species on record: Homo sapiens; assay: Inhibition of human PKG using FAM-IP3R peptide as fluorescent substrate at 10 uM preincubated for 15 mins followed by substrate addition measured after 1 hr by fluorescence polarization based IMAP assay relative to control; details: time 75.0 min
property label: inhibition (%)

compound=CN1CCC(c2cc(-c3ccnc(N)c3)c(-c3ccc(F)cc3)[nH]2)CC1.Cl.Cl measured_value=-4
compound=CN1CCC(c2cc(-c3ccncc3Cl)c(-c3ccc(F)cc3)[nH]2)CC1.Cl.Cl measured_value=12
compound=C[C@H]1CN(C)CC[C@@H]1c1cc(-c2ccncc2)c(-c2ccc(F)cc2)[nH]1.Cl.Cl measured_value=30
compound=CCOC(=O)c1c(C2CCN(C)CC2)[nH]c(-c2ccc(F)cc2)c1-c1ccncc1.Cl.Cl measured_value=0
compound=CN1CCC(c2[nH]c(-c3ccc(F)cc3)c(-c3ccncc3)c2C#N)CC1.Cl.Cl measured_value=19
compound=CN1CCC(c2cc(-c3ccncc3)c(-c3ccc(F)cc3)[nH]2)CC1.Cl measured_value=6
compound=Cc1cnccc1-c1cc(C2CCN(C)CC2)[nH]c1-c1ccc(F)cc1.Cl.Cl measured_value=12
compound="C[C@@H]1C[C@H](c2cc(-c3ccncc3)c(-c3ccc(F)cc3)[nH]2)CCN1C.Cl.Cl (racemic)" measured_value=10
compound="CC1CN(C)CC[C@H]1c1cc(-c2ccncc2)c(-c2ccc(F)cc2)[nH]1.Cl.Cl (single isomer, unassigned)" measured_value=0.4
compound=CN1CCC(c2cc(-c3ccncc3CO)c(-c3ccc(F)cc3)[nH]2)CC1.Cl.Cl measured_value=1
compound=CN1CCC(c2[nH]c(-c3ccc(F)cc3)c(-c3ccncc3)c2Br)CC1.Cl.Cl measured_value=12
compound=CN1CCC(c2cc(-c3ccncc3)c(-c3ccc(F)cc3)n2C)CC1.Cl.Cl measured_value=4
compound=C[C@@H]1CN(C)CC[C@@H]1c1cc(-c2ccncc2)c(-c2ccc(F)cc2)[nH]1.Cl.Cl measured_value=-0.3
compound="CN1C[C@@H]2C(c3cc(-c4ccncc4)c(-c4ccc(F)cc4)[nH]3)[C@@H]2C1.Cl.Cl (stereo partly specified)" measured_value=6
compound=CN1CCC(c2[nH]c(-c3ccc(F)cc3)c(-c3ccncc3)c2C(N)=O)CC1.Cl.Cl measured_value=14
compound=CC(=O)O.CN1CCC(c2[nH]c(-c3ccc(F)cc3)c(-c3ccncc3)c2CO)CC1 measured_value=11
compound=CC(=O)O.CN1CCC(c2cc(-c3ccnc(C#N)c3)c(-c3ccc(F)cc3)[nH]2)CC1 measured_value=9
compound="CC(O)c1cc(-c2cc(C3CCN(C)CC3)[nH]c2-c2ccc(F)cc2)ccn1.Cl.Cl (stereo unspecified)" measured_value=0.5
compound=CN1CCC(c2cc(-c3ccncc3F)c(-c3ccc(F)cc3)[nH]2)CC1.Cl.Cl measured_value=18
compound="C[C@H]1CN(C)CC[C@H]1c1cc(-c2ccncc2)c(-c2ccc(F)cc2)[nH]1.Cl.Cl (racemic)" measured_value=35
compound=CCc1c(C2CCN(C)CC2)[nH]c(-c2ccc(F)cc2)c1-c1ccncc1.Cl.Cl measured_value=12
compound=CN1CCC(c2cc(-c3ccncc3Br)c(-c3ccc(F)cc3)[nH]2)CC1.Cl.Cl measured_value=13
compound=CN1CCC(c2cc(-c3ccnc(C(N)=O)c3)c(-c3ccc(F)cc3)[nH]2)CC1.Cl.Cl measured_value=14
compound="CC(=O)O.CC(O)c1c(C2CCN(C)CC2)[nH]c(-c2ccc(F)cc2)c1-c1ccncc1 (stereo unspecified)" measured_value=15
compound=CN1CCC(C)(c2cc(-c3ccncc3)c(-c3ccc(F)cc3)[nH]2)CC1.Cl.Cl measured_value=35
compound=CN1CCC(c2cc(-c3ccncc3C(N)=O)c(-c3ccc(F)cc3)[nH]2)CC1.Cl.Cl measured_value=15
compound=CN1CCC(c2cc(-c3ccncc3)c(-c3ccsc3)[nH]2)CC1.Cl.Cl measured_value=7
compound=CN(C)Cc1c(C2CCN(C)CC2)[nH]c(-c2ccc(F)cc2)c1-c1ccncc1.Cl.Cl.Cl measured_value=8
compound=CN1CCC(c2cc(-c3ccncc3C#N)c(-c3ccc(F)cc3)[nH]2)CC1.Cl.Cl measured_value=2
compound=C=Cc1c(C2CCN(C)CC2)[nH]c(-c2ccc(F)cc2)c1-c1ccncc1.CC(=O)O measured_value=-1
compound=Cc1cc(-c2cc(C3CCN(C)CC3)[nH]c2-c2ccc(F)cc2)ccn1.Cl.Cl measured_value=9
compound="C[C@H]1C[C@H](c2cc(-c3ccncc3)c(-c3ccc(F)cc3)[nH]2)CCN1C.Cl.Cl (racemic)" measured_value=7
compound=CN1CCC(c2cc(-c3ccnc(Br)c3)c(-c3ccc(F)cc3)[nH]2)CC1.Cl.Cl measured_value=36
compound="C[C@@H]1CN(C)CC[C@H]1c1cc(-c2ccncc2)c(-c2ccc(F)cc2)[nH]1.Cl.Cl (racemic)" measured_value=9
compound=CN1CCC(c2cc(-c3ccn4nnnc4c3)c(-c3ccc(F)cc3)[nH]2)CC1.Cl.Cl measured_value=12
compound="CN1C2CCC1CC(c1cc(-c3ccncc3)c(-c3ccc(F)cc3)[nH]1)C2.Cl.Cl (stereo unspecified)" measured_value=-9

---

assay: Inhibition of recombinant Plasmodium falciparum PKG using FAM-PKA peptide as fluorescent substrate preincubated for 15 mins followed by substrate addition measured after 1 hr by fluorescence polarization based IMAP assay
property label: IC50 (nM)

molecule=Cc1cnccc1-c1cc(C2CCN(C)CC2)[nH]c1-c1ccc(F)cc1.Cl.Cl property_label=IC50 measured_value=208
molecule=CN1CCC(c2[nH]c(-c3ccc(F)cc3)c(-c3ccncc3)c2C#N)CC1.Cl.Cl property_label=IC50 measured_value=11
molecule="CC(=O)O.CC(O)c1c(C2CCN(C)CC2)[nH]c(-c2ccc(F)cc2)c1-c1ccncc1 (stereo not drawn)" property_label=IC50 measured_value=1430
molecule=CN1CCC(c2cc(-c3ccn4nnnc4c3)c(-c3ccc(F)cc3)[nH]2)CC1.Cl.Cl property_label=IC50 measured_value=11600
molecule=CN1CCC(C)(c2cc(-c3ccncc3)c(-c3ccc(F)cc3)[nH]2)CC1.Cl.Cl property_label=IC50 measured_value=50
molecule="C[C@@H]1CN(C)CCC1c1cc(-c2ccncc2)c(-c2ccc(F)cc2)[nH]1.Cl.Cl (single isomer, unassigned)" property_label=IC50 measured_value=9
molecule=C[C@H]1CN(C)CC[C@@H]1c1cc(-c2ccncc2)c(-c2ccc(F)cc2)[nH]1.Cl.Cl property_label=IC50 measured_value=14
molecule=CN1CCC(c2cc(-c3ccncc3F)c(-c3ccc(F)cc3)[nH]2)CC1.Cl.Cl property_label=IC50 measured_value=49

---

test: Aqueous solubility of compound in PBS at pH 7.4 incubated for 90 mins by UV spectrophotometric analysis; assay type: physicochemical
This section presents molecules with their documented solubility at 1.5 h values.
property label: solubility at 1.5 h (µM)

molecule=C[C@@H]1CN(C)CC[C@@H]1c1cc(-c2ccncc2)c(-c2ccc(F)cc2)[nH]1.Cl.Cl property_label="solubility at 1.5 h" measured_value=181
molecule="CC1CN(C)CC[C@H]1c1cc(-c2ccncc2)c(-c2ccc(F)cc2)[nH]1.Cl.Cl (single isomer, unassigned)" property_label="solubility at 1.5 h" measured_value=190
molecule=C[C@H]1CN(C)CC[C@@H]1c1cc(-c2ccncc2)c(-c2ccc(F)cc2)[nH]1.Cl.Cl property_label="solubility at 1.5 h" measured_value=187
molecule="C[C@@H]1CN(C)CCC1c1cc(-c2ccncc2)c(-c2ccc(F)cc2)[nH]1.Cl.Cl (single isomer, unassigned)" property_label="solubility at 1.5 h" measured_value=176

---

This section presents molecules with their documented pIC50 values.
molecular target: Cytochrome P450 2D6 (Homo sapiens)
Sequence (P10635 whole entry): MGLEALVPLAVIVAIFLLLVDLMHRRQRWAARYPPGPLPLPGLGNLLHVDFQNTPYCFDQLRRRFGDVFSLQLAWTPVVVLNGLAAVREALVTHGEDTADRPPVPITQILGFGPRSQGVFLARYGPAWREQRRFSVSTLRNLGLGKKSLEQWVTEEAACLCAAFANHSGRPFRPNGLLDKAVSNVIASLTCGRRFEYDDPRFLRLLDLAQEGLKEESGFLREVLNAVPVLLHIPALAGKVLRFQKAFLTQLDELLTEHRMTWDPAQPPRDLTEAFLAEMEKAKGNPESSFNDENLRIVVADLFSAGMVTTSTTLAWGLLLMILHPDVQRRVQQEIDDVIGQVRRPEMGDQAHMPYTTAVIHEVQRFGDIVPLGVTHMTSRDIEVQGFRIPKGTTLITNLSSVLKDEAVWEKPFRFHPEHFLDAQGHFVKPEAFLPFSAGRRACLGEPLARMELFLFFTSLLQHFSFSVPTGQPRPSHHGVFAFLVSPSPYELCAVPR
pIC50: −log10 of the molar value.
property label: pIC50

molecule=C[C@H]1CN(C)CC[C@@H]1c1cc(-c2ccncc2)c(-c2ccc(F)cc2)[nH]1.Cl.Cl property_label=pIC50 bound_sign== measured_value=5.21
molecule="C[C@@H]1CN(C)CCC1c1cc(-c2ccncc2)c(-c2ccc(F)cc2)[nH]1.Cl.Cl (single isomer, unassigned)" property_label=pIC50 bound_sign== measured_value=5.24
molecule="CC1CN(C)CC[C@H]1c1cc(-c2ccncc2)c(-c2ccc(F)cc2)[nH]1.Cl.Cl (single isomer, unassigned)" property_label=pIC50 bound_sign== measured_value=5.25
molecule=C[C@@H]1CN(C)CC[C@@H]1c1cc(-c2ccncc2)c(-c2ccc(F)cc2)[nH]1.Cl.Cl property_label=pIC50 bound_sign=< measured_value=5.00
